# Tested on: MCF7 breast
# Procedure Summary: NCI-60 one-dose screen, 48 h
# Condition Description: 10 µM unless noted
# Experimental: Growth inhibition of the MCF7 human tumor cell line is measured as a screen for anti-cancer activity. Cells are grown in 96 well plates and exposed to the test compound for 48 hours. Compounds are tested at a single concentration, which is 10^-5 M for most compounds. The reported endpoint is percent growth (GI% or GIPRCNT), where numbers from 0 - 100% represent growth inhibition, and numbers from -100% - 0 represent cell death. For example, a value of 40 represents 60% growth inhibition. […]
Compounds without any hit were thinned out: in the full panel of roughly 83,000, 20% have a hit. Calls of active or inactive are those of the source. Rule for the calls: active = growth percent below 10; inactive = the rest.
# valid calls are active, inactive; nothing else

• Cc1sc2nc(NCCc3cccs3)[nH]c(=O)c2c1C = inactive

Would you mind telling me which call this test gave COc1cc(/C=C2\SC(N3CCCCC3)=NC2=O)ccc1OCCCCCCOc1ccc(/C=C2\SC(N3CCCCC3)=NC2=O)cc1OC ? inactive

Check the results log: what was the call for CC[C@@H](C)/C=C(C)/C=C/C(O)=C1\C(=O)N[C@@H](Cc2ccc(OC(=O)[C@@](OC)(c3ccccc3)C(F)(F)F)cc2)C1=O ? inactive

Called result for CCCCCc1c(C)[nH]c(/C=C2\N=C(c3ccc[nH]3)C=C2Oc2ccc(Cl)cc2)c1C active

For O=[N+]([O-])c1cc([N+](=O)[O-])c(N2CCCC2)cc1NN=C(c1ccc(O)cc1)c1ccc(O)cc1 , what call appears in the results of this test? active

Recorded test call requested for COc1ccc2[nH]c(=O)c(CNc3ccc(Nc4nccc(-c5ccc(Cl)cc5)n4)cc3)cc2c1 inactive

Sourced from PubChem BioAssay (NCI)
